Data provenance is PubChem BioAssay (NCI).

Test system: NCI-H460 lung
Assay: NCI-60 one-dose screen, 48 h
Conditions: 10 µM unless noted
About 83,000 compounds went through this panel and 20% of them were active in at least one assay; those are over-represented in the sample as a whole. Activity calls are given as the source filed them. Rule for the calls: active = growth percent below 10; inactive = the rest.
Possible outcomes: yes (active), no (inactive)

compound=NS(=O)(=O)c1ccc(Nc2nc(N/N=C/c3ccc4c(c3)OCO4)nc(Nc3ccccc3)n2)cc1 group=yes
compound="COc1ccc(C2C(C#N)=C(/N=C/c3ccc(Cl)cc3)Oc3c2sc2c(C)cccc32)cc1 (centres undefined)" group=no
compound=CC[C@H](CC[C@@H](C)[C@H]1CC[C@H]2[C@@H]3CC(=O)C4=CC(=O)/C(=C/c5ccc([N+](=O)[O-])cc5)C[C@]4(C)[C@H]3CC[C@]12C)C(C)C group=no
compound=CNc1sc(S(=O)(=O)NC)nc1S(=O)(=O)c1ccc(C)cc1 group=no
compound=Cn1cc(C2=C(c3coc4cc(Br)ccc34)C(=O)NC2=O)c2ccccc21 group=no
compound="CC(=O)N1N=C(c2cc3ccccc3oc2=O)CC1c1cn(-c2ccccc2)nc1-c1ccc(C)cc1 (centres undefined)" group=no
compound=O=C(CCCCCCN1CC(=O)N2[C@@H](c3cccs3)c3[nH]c4ccccc4c3C[C@H]2C1=O)NO group=no
compound=C#C[C@]1(O)CC[C@H]2[C@@H]3CC=C4c5sc(N(C)c6ccccc6)nc5CC[C@]4(C)[C@H]3CC[C@@]21C group=no
compound="CC1=Cc2ccccc2OC12C=Cc1ccccc1O2 (centres undefined)" group=no
compound=CC/C(=C(/c1ccc(Cl)cc1)c1ccc(OCCN)cc1)c1ccccc1 group=no
compound=N#CC1=C2NCCCNc3oc(nc3C#N)Cc3ccccc3CC(=N1)O2 group=no
compound=COc1ccc2c(c1)c(/C=N/Nc1ccnc3cc(Cl)ccc13)cn2C group=yes
compound=O=C(CCCCCCNC(=O)C(O)(O)C(F)(F)F)Nc1ccc(Br)cc1 group=no
compound=CCc1cc(OC(=O)N2CCN(CCC(C)(COC(C)(C)C)COC(C)(C)C)CC2)ccc1Nc1cc(-c2ccc(-n3cccn3)cc2)[nH]n1 group=no
compound=CN1CCN(Cc2ccc(/C=N/Nc3ccnc4cc(Cl)ccc34)cc2)CC1 group=no
compound=Cc1ccc2c(n1)C(=O)C(Cl)=C(Nc1ccc(C(=O)OC(C)(C)C)cc1)C2=O group=no
compound=COc1ccc(/C(=N\N=C(N)N)c2ccc(Cl)cc2)cc1OC group=no
compound=Clc1ccc2c(N/N=C/c3c[nH]c4ccccc34)ccnc2c1 group=yes
compound=O=C(CCCCCCN1CC(=O)N2[C@@H](c3ccccc3Br)c3[nH]c4ccccc4c3C[C@H]2C1=O)NO group=no

----------
Test system: RPMI-8226 leukemia
Assay: NCI-60 one-dose screen, 48 h (100 = growth as untreated, 0 = no growth, -100 = all killed)
Conditions: 10 µM unless noted
Description: Growth inhibition of the RPMI-8226 human tumor cell line is measured as a screen for anti-cancer activity. Cells are grown in 96 well plates and exposed to the test compound for 48 hours. Compounds are tested at a single concentration, which is 10^-5 M for most compounds. The reported endpoint is percent growth (GI% or GIPRCNT), where numbers from 0 - 100% represent growth inhibition, and numbers from -100% - 0 represent cell death. For example, a value of 40 represents 60% growth inhibition. […]
Compounds without any hit were thinned out: in the full panel of roughly 83,000, 20% have a hit.
In this section we review reported growth values for a set of compounds.
quantity.measured: growth (%)

molecular_string=Oc1ccc(-c2nc3ccc(/C(=N\N=C\c4ccc(Cl)cc4)c4ccccc4)cc3[nH]2)cc1 quantity_measured=growth observed_value=33.9
molecular_string=CCOC(=O)c1ccccc1NC1=C(Cl)C(=O)c2nc(C)ccc2C1=O quantity_measured=growth observed_value=99.3
molecular_string=Cc1[nH]c(C(=O)Nc2ccc(S(=O)(=O)N3CCCCC3)cc2OCCOCCOCCOCCOCCOCCOCCOCCOCCOc2cc(S(=O)(=O)N3CCCCC3)ccc2NC(=O)c2[nH]c(C)c3c2CCCCC3=O)c2c1C(=O)CCCC2 quantity_measured=growth observed_value=10.6
molecular_string=CC1=C(C)C(=O)C(Nc2cccc(C(=O)OC(C)(C)C)c2)=CC1=O quantity_measured=growth observed_value=75.8

----------
Tested on: SW-620 colon
Assay: NCI-60 one-dose screen, 48 h (100 = growth as untreated, 0 = no growth, -100 = all killed)
Conditions: 10 µM unless noted
The panel holds about 83,000 compounds, 20% with a hit somewhere; the sample as a whole holds those more often.
quantity.measured: growth (%)

compound=Cn1cc(-c2cc3ncnc(Nc4ccc(CC(=O)Nc5nc(C(C)(C)C)cs5)cc4)c3s2)cn1 observed_value=53.8
compound=O=C1C(N2CCN(c3ccccc3)CC2)=C(Cl)C(=O)c2ncccc21 observed_value=-35
compound=COC(=O)CNC(=O)c1cccc(-c2cc(=O)c3c(OC)c(OC)c(OC)cc3o2)c1 observed_value=100
compound=O=C(NCCNc1cc(-c2cn(-c3ccccc3)nc2-c2cccc(O)c2)ccn1)Nc1cc(C(F)(F)F)cc(C(F)(F)F)c1 observed_value=101
compound=Clc1ccc2[nH]cc(-c3nn4cc(-c5cccnc5)nc4s3)c2c1 observed_value=104
compound=COc1ccc(-c2nc(C#N)c(N3CCC(S(=O)(=O)N4CCOCC4)CC3)o2)cc1 observed_value=95.7
compound=COc1cc(-c2nc(-c3ccccc3)[nH]c2-c2ccnc(NCCCNS(=O)(=O)c3cccc(F)c3)n2)ccc1F observed_value=106
compound=O=C1[C@@H]2Cc3c([nH]c4ccccc34)[C@@H](c3ccc(Cl)cc3)N2C(=O)CN1C1CCN(Cc2c(F)cccc2F)CC1 observed_value=48.6
compound=CN1CCN(Cc2ccc(NC(=O)c3cncc(C#Cc4cnc5ccc(N6CCOCC6)nn45)c3)cc2C(F)(F)F)CC1 observed_value=-19.2
compound=COc1cc2cc(Oc3ccc(NC(=O)Nc4ccc(F)c(C(F)(F)F)c4)cc3)c(C)nc2cc1OCCN(C)C observed_value=53.7
compound=O=C(CSc1nnc(-c2cccs2)n1-c1ccccc1)Nc1ccccc1F observed_value=69.3
compound=Cn1ncc2ncc(-c3ccc4ncc(C#N)c(N5CCc6cc(F)c(Cl)cc65)c4c3)cc21 observed_value=54.4
compound=O=C(/C=C/c1ccccc1)c1cccc(O)c1 observed_value=104
compound=NS(=O)(=O)c1ccc(Nc2nc(N/N=C/C=C/c3ccccc3)nc(Nc3ccccc3)n2)cc1 observed_value=51.1
compound=CNC(=O)c1cc(-c2ccc(NC(=S)Nc3cccc(C(F)(F)F)c3)cc2)nc2cccnc12 observed_value=96.8
compound=CCC(=C(c1ccc(OCCN2CCCCCC2)cc1)c1ccc(OCCN2CCCCCC2)cc1)c1ccc(Cl)cc1 observed_value=-49.2
compound=O=S(=O)(Oc1ccc(-c2cn3ccsc3n2)cc1)c1cccc(C(F)(F)F)c1 observed_value=97.4
compound=CCOC(=O)c1cccnc1Nc1ccc(NC(=O)Nc2ccc(Cl)c(C(F)(F)F)c2)cc1 observed_value=37.1
compound=CN1CCN(c2ccc(Nc3nc(NCCNS(=O)(=O)c4ccc5ccccc5c4)c4sccc4n3)cc2)CC1 observed_value=35.2
compound=CC(=O)Nc1nc(C)c(-c2csc(Nc3ccccc3)n2)s1 observed_value=57.8
compound=CN(C)c1ccc(/C=N/Nc2nc(N/N=C/c3ccc(N(C)C)cc3)nc(N3CCCCC3)n2)cc1 observed_value=64.2
compound="O=S1SC(c2ccccc2)=NN1c1cc(F)cc(F)c1 (centres undefined)" observed_value=59.2
compound="C#CCOc1ccccc1C(OC(=O)c1ccccc1)C(=O)NC(C)(C)C(C)(C)C (centres undefined)" observed_value=96.9
compound=COC(=O)CCSC1=C(C)C(=O)c2ccccc2C1=O observed_value=96.3
compound=CCCCCCN1C=C/C(=C\C(=O)n2ccc3ccccc32)c2ccccc21 observed_value=79.2
compound=COc1ccc(C(=O)c2c(N)c(C#N)cn2-c2ccc(Cl)cc2Cl)cc1 observed_value=98.3
compound=COC(=O)c1cccc(NC2=C(Cl)C(=O)c3nc(C)ccc3C2=O)c1 observed_value=0.0392
compound=Cc1ccc(OCc2occc2C(=O)N2CCOCC2)cc1 observed_value=102
compound=COC(=O)c1cccc(NC2=CC(=O)C(C)=C(C)C2=O)c1 observed_value=104
compound=N#Cc1cnc2ccc(-c3cnc4n[nH]nc4c3)cc2c1N1CCc2cc(F)c(Cl)cc21 observed_value=26.8
compound=Cc1ccc(/C(N)=N/C(N)=N/c2nc3ccccc3s2)cc1 observed_value=107
compound=CC(C)(C)c1cc(NC(=O)Nc2ccc(-c3cn4c5c(sc4n3)CCc3cn(CCCN4CCCCC4)cc3-5)cc2)no1 observed_value=-68.2
compound=O=C(CSc1nnc(-c2ccc(Cl)cc2)n1-c1ccccc1)Nc1ccccc1Cl observed_value=51.6
compound=COc1cc(NC(=O)Nc2cccc(-c3cc(=O)c4c(OC)c(OC)c(OC)cc4o3)c2)cc(OC)c1OC observed_value=41.3
compound=CCOC(=O)c1c(NC(=O)c2cccc(C(F)(F)F)c2)sc2c1CCC(=O)C2 observed_value=13.8
compound=N#C/C(=N\Nc1ccc(F)cc1)C(=O)Nc1cc(-c2ccccc2)nn1-c1ccccc1 observed_value=17.5
compound=CC(C)(C)Nc1nc2c(OCCc3ccccc3)cccn2c1-c1ccc([N+](=O)[O-])cc1 observed_value=77.6
compound=Cc1ncn(-c2ccc(/C=N/Nc3ccnc4cc(Cl)ccc34)cc2)c1C observed_value=-60.4
compound=CCOC(=O)c1cnc2c(-c3ccc(Cl)c(Cl)c3)cnn2c1 observed_value=42.3
